system: Plasmodium falciparum; experiment: Antiplasmodial activity against multi drug-resistant Plasmodium falciparum K1 infected in human type A+ erythrocytes assessed as inhibition of [G-3H]hypoxanthine incorporation after 42 hrs by scintillation counting; assay type: functional, organism-based; details: K1, 42 h
Each entry below carries its reported IC50.

| cpd-smiles | IC50 |
| --- | --- |
| CC(=O)OC[C@@]12[C@H](OC(C)=O)[C@H](OC(C)=O)[C@@H]3[C@@H](OC(=O)c4ccccc4)[C@@]14O[C@@]3(C)COC(=O)c1cccnc1CC[C@H](C)C(=O)O[C@@H]([C@H](OC(C)=O)[C@@H]2OC(=O)c1ccccc1)[C@]4(C)O | 2.5 µM |
| CC(=O)OC[C@@]12[C@H](OC(C)=O)[C@@H](OC(C)=O)[C@@H]3[C@@H](OC(=O)c4ccccc4)[C@@]14O[C@@]3(C)COC(=O)c1cccnc1CC[C@](C)(OC(C)=O)C(=O)O[C@@H]([C@H](OC(C)=O)[C@@H]2OC(C)=O)[C@]4(C)O | 3.9 µM |
| CC(=O)OC[C@@]12[C@H](OC(C)=O)[C@H](OC(C)=O)[C@@H]3[C@@H](OC(=O)c4ccccc4)[C@@]14O[C@@]3(C)COC(=O)c1cccnc1CC[C@H](C)C(=O)O[C@@H]([C@H](OC(C)=O)[C@@H]2OC(C)=O)[C@]4(C)O | 3.1 µM |

###

system: Plasmodium falciparum; assay: Antiplasmodial activity against multi drug-resistant Plasmodium falciparum K1 infected in human type A+ erythrocytes assessed as inhibition of [G-3H]hypoxanthine incorporation after 42 hrs by scintillation counting; format: functional, organism-based; settings: K1, 42 h

| cpd-smiles | unit-label | IC50 |
| --- | --- | --- |
| CC(=O)OC[C@@]12[C@H](OC(C)=O)[C@H](OC(C)=O)[C@@H]3[C@@H](OC(=O)c4ccccc4)[C@@]14O[C@@]3(C)COC(=O)c1cccnc1CC[C@](C)(OC(C)=O)C(=O)O[C@@H]([C@H](OC(C)=O)[C@@H]2OC(C)=O)[C@]4(C)O | µM | 3.1 |
| CC(=O)OC[C@@]12[C@H](OC(C)=O)[C@H](OC(C)=O)[C@@H]3[C@@H](OC(=O)c4ccccc4)[C@@]14O[C@@]3(C)COC(=O)c1cccnc1CC[C@](C)(OC(C)=O)C(=O)O[C@@H]([C@H](OC(C)=O)[C@@H]2OC(=O)c1ccccc1)[C@]4(C)O | µM | 3.5 |
